System: D. immitis L4 larvae
Assay: Dirofilaria immitis, L4 Stage (DiL4) In Vitro Assay
Assay type: cell-based
Conditions: larval stage selectivity, ratio of DiMf MED to DiL4 MED
Field: DiMf/DiL4. Provide a value for each of the molecules that follow.

// each listed molecule needs a value for DiMf/DiL4
1. CC(C)C[C@H]1C(=O)O[C@H](Cc2ccc(Cc3ccnn3C3CC3)cc2)C(=O)N(C)[C@@H](CC(C)C)C(=O)O[C@H](C)C(=O)N(C)[C@@H](CC(C)C)C(=O)O[C@H](Cc2ccc(Cc3ccnn3C3CC3)cc2)C(=O)N(C)[C@@H](CC(C)C)C(=O)O[C@H](C)C(=O)N1C
2. COc1ccc(Cc2ccc(C[C@H]3OC(=O)[C@H](CC(C)C)N(C)C(=O)[C@@H](C)OC(=O)[C@H](CC(C)C)N(C)C(=O)[C@@H](Cc4ccc(Cc5ccc(OC)nc5C)cc4)OC(=O)[C@H](CC(C)C)N(C)C(=O)[C@@H](C)OC(=O)[C@H](CC(C)C)N(C)C3=O)cc2)c(C)n1
3. CC(C)C[C@H]1C(=O)O[C@H](Cc2ccc(Cc3cccnc3Cl)cc2)C(=O)N(C)[C@@H](CC(C)C)C(=O)O[C@H](C)C(=O)N(C)[C@@H](CC(C)C)C(=O)O[C@H](Cc2ccc(Cc3cccnc3Cl)cc2)C(=O)N(C)[C@@H](CC(C)C)C(=O)O[C@H](C)C(=O)N1C
4. Cc1ccncc1Cc1ccc(C[C@H]2OC(=O)[C@H](CC(C)C)N(C)C(=O)[C@@H](C)OC(=O)[C@H](CC(C)C)N(C)C(=O)[C@@H](Cc3ccc(Cc4cnccc4C)cc3)OC(=O)[C@H](CC(C)C)N(C)C(=O)[C@@H](C)OC(=O)[C@H](CC(C)C)N(C)C2=O)cc1

4
60
31.5
7.1
